- Test system: COLO-824 (Breast Carcinoma)
- Procedure Summary: combination Emax (second highest fraction inhibited in the dose matrix, 72 h); higher = more inhibition; extreme values may be limits of the assay
Reported combination Emax values are given for each entry in this list.
Just the number, please.

Study these solved cases before continuing.
CN(CCO)CC[C@H](CSc1ccccc1)Nc1ccc(S(=O)(=O)NC(=O)c2ccc(N3CCC([C@@H](O)c4ccccc4-c4ccc(Cl)cc4)CC3)cc2)cc1S(=O)(=O)C(F)(F)F [AZD4320] + CN(C)CCCOc1ccc(-c2ccc3ncc4c(c3c2)n(C2CCOCC2)c(=O)n4C)cn1 [AZD0156] (first compound max 1 µM, 7x7, partner max 1 µM) | 1
CC1(C)CCC(CN2CCN(c3ccc(C(=O)NS(=O)(=O)c4ccc(NCC5CCOCC5)c([N+](=O)[O-])c4)c(Oc4cnc5[nH]ccc5c4)c3)CC2)=C(c2ccc(Cl)cc2)C1 [Venetoclax] + Cn1cnc2c(F)c(Nc3ccc(Br)cc3Cl)c(C(=O)NOCCO)cc21 [Selumetinib] (first compound max 1 µM, 7x7, partner max 3 µM) | 0.829

We now examine a further compound.
Reported combination Emax ( Cc1cc2ncnn2cc1Nc1ncc2c(n1)n(C1CCOCC1)c(=O)n2C [AZD7648] + CCN(CCO)CCCOc1ccc2c(Nc3cc(CC(=O)Nc4cccc(F)c4)[nH]n3)ncnc2c1 [AZD2811] (first compound max 10 µM, 7x7, partner max 1 µM) ) = 0.762
